# System: NCI/ADR-RES ovarian
# ASSAY_DETAILS: NCI-60 one-dose screen, 48 h
# RUN_CONDITIONS: 10 µM unless noted
This is part of a sample that, as a whole, favours compounds with a hit. Of some 83,000 tested, about 20% had one in any assay. The source made the active and inactive calls. How the source made its calls: active means growth percent below 10; inactive means the rest.
Respond using exactly one of the listed classes: 1 = active, 0 = inactive

[[record]]
molecule = "COc1ccc(/C=C/C(=O)c2cccc(NC(=O)CSc3nc4ccccc4c(=O)n3-c3ccccc3)c2)cc1OC"
discrete_label = 0

[[record]]
molecule = "CCNC(=O)N1CCc2cc(OC)c(OCCc3ccc(OC)cc3)cc2C1c1ccc([N+](=O)[O-])cc1C (centres undefined)"
discrete_label = 0

[[record]]
molecule = "C=CCOc1cccc(/C=C2\\SC(=S)N(C3CC(=O)N(c4ccc(Br)cc4)C3=O)C2=O)c1 (centres undefined)"
discrete_label = 0

[[record]]
molecule = "O=C(Nc1cccc(Cl)c1)Nc1nc2ccc([N+](=O)[O-])cc2o1"
discrete_label = 0


Query string: What is the recorded call for this molecule in the test? CCNC(=O)N1CCc2cc(OC)c(OCCc3ccc(OC)cc3)cc2C1c1ccc(OC)cc1C (centres undefined)
Result string: 0

Query string: What is the recorded call for this molecule in the test? CC(C)c1ccc(NCc2cn(-c3ccc(C(=O)O)cc3)nc2-c2cc(C(F)(F)F)cc(C(F)(F)F)c2)cc1
Result string: 0

Query string: What is the recorded call for this molecule in the test? c1ccc(C(c2nc3ncncc3[nH]2)N2CSc3nc4ncncc4n3C2)cc1 (centres undefined)
Result string: 0

Query string: What is the recorded call for this molecule in the test? Cc1occc1-c1nc2s/c(=C/c3ccc(-c4cc(C(F)(F)F)ccc4Cl)o3)c(=O)n2n1
Result string: 0

Query string: What is the recorded call for this molecule in the test? O=C1[C@H]2Cc3c([nH]c4ccccc34)[C@@H](c3ccc(Cl)cc3)N2C(=O)CN1C1CCN(Cc2ccccc2)CC1
Result string: 0

Query string: What is the recorded call for this molecule in the test? CCCCCc1ccc(S(=O)(=O)Nc2cc(-c3csc(NC(=O)CN4CCN(C)CC4)n3)ccc2N2CCN(C)CC2)cc1
Result string: 0

Query string: What is the recorded call for this molecule in the test? COc1cc(OC)c(S(N)(=O)=O)cc1C(C)=O
Result string: 0

Query string: What is the recorded call for this molecule in the test? CC1=NC2=NC(=O)/C(=C3/N=C(C)C=C(c4ccccc4)N3N)NN2C(c2ccccc2)=C1
Result string: 0

Query string: What is the recorded call for this molecule in the test? CCCCCc1ccc(S(=O)(=O)Nc2cccc(-c3csc(NC(=O)CN4CCN(C)CC4)n3)c2)cc1
Result string: 0

Query string: What is the recorded call for this molecule in the test? N#Cc1cn(Cc2ccc(Cl)cc2Cl)c(C(=O)c2ccc(Br)cc2)c1N
Result string: 0

Query string: What is the recorded call for this molecule in the test? COc1ccc(/C=C(/C)c2ccc3ccc(OC)cc3[o+]2)c(O)c1
Result string: 0

Query string: What is the recorded call for this molecule in the test? COc1cc(-c2ccc3ncnc(NCc4ccccc4)c3c2)cnc1OC
Result string: 0

Query string: What is the recorded call for this molecule in the test? N#Cc1c(NC(=O)c2cccc(C(F)(F)F)c2F)sc2c1CCC(=O)C2
Result string: 1

Query string: What is the recorded call for this molecule in the test? CNCc1cccc2c1OCCCCCCC(C)(O)CC(C)(C)S(=O)(=O)c1ccc(cc1)-c1cnc(N)c(n1)C(=O)N2 (centres undefined)
Result string: 0

Query string: What is the recorded call for this molecule in the test? Oc1cccc2ccc(-c3nnc(SCc4ccc(O)c5ncccc45)o3)nc12
Result string: 0

###

For each of the compounds below, state its growth.
# Tested on: COLO 205 colon
# ASSAY_DETAILS: NCI-60 one-dose screen, 48 h (100 = growth as untreated, 0 = no growth, -100 = all killed)
# RUN_CONDITIONS: 10 µM unless noted
# Experimental: Cells are grown in 96 well plates and exposed to the test compound for 48 hours. Compounds are tested at a single concentration, which is 10^-5 M for most compounds. The reported endpoint is percent growth (GI% or GIPRCNT), where numbers from 0 - 100% represent growth inhibition, and numbers from -100% - 0 represent cell death. For example, a value of 40 represents 60% growth inhibition. A value of 0 means no net growth occurred over the course of the experiment. […]
This is part of a sample that, as a whole, favours compounds with a hit. Of some 83,000 tested, about 20% had one in any assay. Active and inactive are the calls of the source. The calls were made as follows: active = growth percent below 10; inactive = the rest.

[[record]]
compound = "Fc1ccc(-c2cc3nc(C(Cl)Cl)nc(-c4ccc(F)cc4)n3n2)cc1"
property_measured = "growth"
result = "-70.2% (active)"

[[record]]
compound = "COc1c(N2CC3CCCNC3C2)c(F)cc2c(=O)c(C(=O)N/N=C/c3ccc(N(C)C)cc3)cn(C3CC3)c12 (configuration not stated)"
property_measured = "growth"
result = "104% (inactive)"

[[record]]
compound = "COC(=O)C1(C)CCC[C@]2(C)[C@H]3C[C@H]4C(C(C)C)=C[C@]3(CC[C@@H]12)[C@H]1[C@@H]4[C@@H](OC(=O)c2ccco2)CC[C@@H]1OC(=O)c1ccco1 (some centres not stated)"
property_measured = "growth"
result = "115% (inactive)"

[[record]]
compound = "Nc1nc(N)c2c(n1)NC(c1ccc(C(F)(F)F)cc1)CC(c1ccc(Nc3nc(NCCO)nc(N4CCOCC4)n3)cc1)=N2 (configuration not stated)"
property_measured = "growth"
result = "71.1% (inactive)"

[[record]]
compound = "C=CCn1c(SCC(=O)Nc2ccc(C(=O)/C=C/c3cccc([N+](=O)[O-])c3)cc2)nnc1-c1c[nH]c2ccccc12"
property_measured = "growth"
result = "110% (inactive)"

[[record]]
compound = "CS(=O)(=O)c1ncc(-c2ccccc2)cn1"
property_measured = "growth"
result = "108% (inactive)"

[[record]]
compound = "CS(=O)(=O)Nc1cc(-c2ccc3ncc(C#N)c(N[C@H](CO)c4ccccc4)c3c2)cnc1Cl"
property_measured = "growth"
result = "57% (inactive)"

[[record]]
compound = "FC(F)(F)c1cc(Nc2cccc(Oc3ccc(NC4=NCCN4)nc3)c2)ccc1Cl"
property_measured = "growth"
result = "-38.3% (active)"


Could you tell me growth for each of these compounds? They are listed below.
1. COc1cc(-c2nn(C(C)(C)C)cc2-c2ccnc(NCCCNS(=O)(=O)c3ccc(F)cc3)n2)ccc1Cl
2. Cn1ccnc1C(=O)/C=C/c1ccc(CNC(=O)c2ccc(S(F)(F)(F)(F)F)cc2)cc1
3. C=C(C)[C@@H]1CC[C@]2(COP(=O)(OCC)OCC)CC[C@]3(C)[C@H](CC[C@@H]4[C@@]5(C)CCCNC(C)(C)[C@@H]5CC[C@]43C)[C@@H]12
4. N=c1c2cc(-c3ccccc3)oc2ncn1/N=C/c1ccc(Cl)cc1

Result string:
96.1% (inactive)
41.8% (inactive)
-15.4% (active)
89.2% (inactive)

Could you tell me growth for each of these compounds? They are listed below.
1. O=C1/C(=C/C=C/c2ccco2)SC(=S)N1c1ccccc1
2. O=C1[C@@H]2Cc3c([nH]c4ccccc34)[C@H](c3c(Cl)cccc3Cl)N2C(=O)CN1C1CCN(CC2CCCCC2)CC1
3. COc1cc(-c2nc(SCCC(C)C)nc(NNC(=O)c3ccncc3)c2C#N)cc(OC)c1OC
4. CCO/C=N/C1=C(C#N)C(c2ccc(F)cc2)c2sc3c(C)cccc3c2O1 (configuration not stated)

Result string:
83.2% (inactive)
96.2% (inactive)
65.9% (inactive)
15.5% (inactive)

Query string: Need growth of O=C(CN1CCN(c2cc(=O)n(-c3ccccc3)c3ccccc23)CC1)Nc1nc(-c2ccccc2)cs1 , thanks.
Result string: 60.1% (inactive)

###

For each of the molecules below, state its growth.
# Test system: MCF7 breast
# ASSAY_DETAILS: NCI-60 one-dose screen, 48 h (100 = growth as untreated, 0 = no growth, -100 = all killed)
# RUN_CONDITIONS: 10 µM unless noted
This is part of a sample that, as a whole, favours compounds with a hit. Of some 83,000 tested, about 20% had one in any assay.
One number for each entry, in %.

[[record]]
molecule = "CCO/C=N/C1=C(C#N)C(c2ccc(F)cc2)c2sc3c(C)cccc3c2O1 (stereo not drawn)"
number = 14.6

[[record]]
molecule = "C=C(C)[C@@H]1CC[C@]2(COCCCNCCC#N)CC[C@]3(C)[C@H](CC[C@@H]4[C@@]5(C)CC[C@H](OCCCNCCC#N)C(C)(C)[C@@H]5CC[C@]43C)[C@@H]12"
number = 32.5

[[record]]
molecule = "COC(=O)c1[nH]nc2c1C1(C(=O)N(C)c3ccccc31)C(C#N)=C(N)O2 (stereo not drawn)"
number = 89.6


Could you tell me growth for each of these molecules? They are listed below.
1. Cc1ccc2c(c1)C13C(=C2Br)CCCN1C(=O)c1ccccc13 (stereo not drawn)
2. CCCn1cnc2c(c1=N)C(c1ccc(Cl)cc1)c1sc3c(CC)cccc3c1O2 (stereo not drawn)
3. COc1ccc(-c2nn(-c3ccc(S(C)(=O)=O)cc3)cc2/C=N/O)cc1

Result string:
1. 74.3
2. 17
3. 106

Could you tell me growth for each of these molecules? They are listed below.
1. CCc1nn2c(C)cc(C)nc2c1Cc1ccc(/C=C/CN2CCN(CCOCCOCCN3CCN(C/C=C/c4ccc(Cc5c(CC)nn6c(C)cc(C)nc56)cc4)CC3)CC2)cc1
2. CNC(=O)c1cc(-n2ccc3cc(NC(=O)Nc4ccc(N5CCOCC5)c(C(F)(F)F)c4)ccc32)ccn1

Result string:
[-85.8, 35.3]

Source of measurements: PubChem BioAssay (NCI)
